Assayed System: Proteasome subunit beta type-10 (Homo sapiens)
Sequence (P40306 whole entry): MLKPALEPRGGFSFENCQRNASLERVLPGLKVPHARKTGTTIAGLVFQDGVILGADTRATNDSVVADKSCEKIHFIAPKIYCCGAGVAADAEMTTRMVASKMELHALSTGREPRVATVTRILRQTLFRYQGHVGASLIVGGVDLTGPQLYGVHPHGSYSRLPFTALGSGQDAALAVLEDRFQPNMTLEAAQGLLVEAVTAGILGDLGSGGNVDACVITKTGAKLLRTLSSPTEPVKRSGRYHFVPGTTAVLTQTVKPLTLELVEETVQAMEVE
Protocol Text: Inhibition of human 20S immunoproteasome beta 2 subunit trypsin-like activity using fluorogenic peptide Ac-WLR-AMC as substrate in presence of PA28alpha incubated for 1 to 2 hrs by fluorescence microplate reader assay
IC50 values for the molecules below.
Recorded Metric: IC50 (nM)

structure_string=CC(=O)N1CCC[C@@H]1C(=O)N[C@@H](C)C(=O)N[C@@H](Cc1ccccc1)B(O)O result_qualifier=> value_observed=10000
structure_string=CC(C)C[C@H](NC(=O)[C@H](Cc1ccccc1)NC(=O)Cc1ccc(O)cc1)B(O)O result_qualifier== value_observed=300
structure_string=Cc1ccc(S(=O)(=O)N[C@@H](CC(=O)NCC(C)(C)C)C(=O)N[C@@H](Cc2ccccc2)C(=O)N[C@@H](CC(C)C)B(O)O)cc1 result_qualifier== value_observed=130
structure_string=CC(=O)N1CCC[C@H]1C(=O)N[C@@H](C)C(=O)N[C@@H](CC(C)C)B(O)O result_qualifier=> value_observed=10000

====

Tested on: Plasmodium falciparum
Protocol Text: Antiplasmodial activity against DHA-sensitive and sorbitol synchronized ring stage forms of Plasmodium falciparum Cam3.II^rev expressing K13 wild-type genotype assessed as reduction in parasitemia incubated for 3 hrs by pulse exposure based Syto-61 staining dye based flow cytometry analysis
Type: functional
Test Settings: read-out: LD50 (the source's name)
LC50 reference
Recorded Metric: LC50 (nM)

molecule=Cc1ccc(S(=O)(=O)N[C@@H](CC(=O)NCC(C)(C)C)C(=O)N[C@@H](Cc2ccccc2)C(=O)N[C@@H](CC(C)C)B(O)O)cc1 recorded_metric=LC50 value_observed=210
molecule="CC(C)C[C@H](NC(=O)[C@H](Cc1ccccc1)NC(=O)c1cnccn1)B(O)O [BORTEZOMIB]" recorded_metric=LC50 value_observed=180
molecule=CC(=O)N1CCC[C@H]1C(=O)N[C@@H](C)C(=O)N[C@@H](CC(C)C)B(O)O recorded_metric=LC50 value_observed=1800
molecule=CC(C)C[C@H](NC(=O)[C@H](Cc1ccccc1)NC(=O)Cc1ccc(O)cc1)B(O)O recorded_metric=LC50 value_observed=180
molecule=CC(=O)N1CCC[C@@H]1C(=O)N[C@@H](C)C(=O)N[C@@H](Cc1ccccc1)B(O)O recorded_metric=LC50 value_observed=900

====

System: Plasmodium falciparum 3D7
Protocol Text: Inhibition of 20S proteasome beta 5 subunit in bortezomib-resistant Plasmodium falciparum 3D7 assessed as inhibition of BMV037 probe labeling at 1 to 10 uM incubated for 1 hr by SDS-PAGE analysis
Test Settings: dose 1-10 µM
Calls of active or inactive are those of the source. The calls are words filed in the database; no cut-off is given here.
Outcome codes: true (1) (active), false (0) (inactive)

structure_string=CC(=O)N1CCC[C@@H]1C(=O)N[C@@H](C)C(=O)N[C@@H](Cc1ccccc1)B(O)O classification="true (1)"
structure_string=CC(C)C[C@H](NC(=O)[C@H](Cc1ccccc1)NC(=O)Cc1ccc(O)cc1)B(O)O classification="false (0)"
structure_string=CC(=O)N1CCC[C@H]1C(=O)N[C@@H](C)C(=O)N[C@@H](CC(C)C)B(O)O classification="false (0)"
structure_string=Cc1ccc(S(=O)(=O)N[C@@H](CC(=O)NCC(C)(C)C)C(=O)N[C@@H](Cc2ccccc2)C(=O)N[C@@H](CC(C)C)B(O)O)cc1 classification="true (1)"

====

Protocol Text: Binding affinity to Plasmodium falciparum 20S proteasome beta 5 subunit assessed as equilibrium constant using fluorogenic peptide Ac-WLA-AMC as substrate in presence of PA28alpha by fluorescence based microplate reader assay
pKi: −log10 of the molar value.
Recorded Metric: pKi

structure_string=CC(C)C[C@H](NC(=O)[C@H](Cc1ccccc1)NC(=O)Cc1ccc(O)cc1)B(O)O value_observed=8.37
